Property: % growth inhibition; scope: individual compounds
- Tested on: Toxoplasma gondii RH tachyzoites
- Experiment notes: % growth inhibition vs DMSO (48 h luciferase); higher = more inhibition
- Measurement parameters: 10 µM

Compound | Readout qualifier | % growth inhibition [%]
O=C(Nc1ccccc1O)c1ccc(Oc2cccc(C(=O)Nc3ccccc3O)c2)cc1 | = | 99.4
CC(C)(C)c1ccc(C(=O)Nc2c3c(nn2-c2cccc(Cl)c2)CSC3)cc1 | = | 46.7
CCN(CC)c1cc(C)c2cc(NC(=O)c3cccc(OC)c3)ccc2n1 | = | 98.7
Oc1ccc(Br)cc1CN1CCN(Cc2cccc(F)c2)CC1 | = | 6.13
CN1CCN(c2c3c(c(C#N)c4nc5ccccc5n24)CCC3)CC1 | = | 39.4
CC(C)=CCN1CCC(C(=O)Nc2ccc(-c3nc4ccccc4[nH]3)cc2)CC1 | = | 19.7
CCCCCCn1c(=N)n(CC(O)COc2cccc(C)c2)c2ccccc21 (stereo unspecified) | = | 99.6
O=C(Nc1ccc(F)c(Cl)c1)Nc1ccc(Cl)c(Cl)c1 | = | 100
COc1ccc(CCNC(=O)c2cc(S(=O)(=O)N3CC(C)CC(C)C3)ccc2Sc2ccc(F)cc2)cc1OC (stereo unspecified) | = | 11.7
Cc1ccc(NC(=O)Nc2cccc(Cl)c2)cc1F | = | 98.5
COc1ccccc1CNC(=O)CCn1c(=O)[nH]c2ccsc2c1=O | < | 0

---

Each entry below lists one item and its recorded % growth inhibition value.
- Tested on: Toxoplasma gondii RH tachyzoites
- Experiment notes: % growth inhibition vs DMSO (48 h luciferase); higher = more inhibition
- Measurement parameters: 10 µM
Endpoint name: % growth inhibition

Molecule | Endpoint name | Measured result
OC1CCCCC1C1(NC(=S)Nc2ccccc2)CCCCC1 (configuration not stated) | % growth inhibition | 64%
Cc1cccc(Nc2nc(N)c3ccccc3n2)c1 | % growth inhibition | < 0%
CCCN(CCC)CC(O)COc1ccccc1C(=O)Nc1ccccc1 (configuration not stated) | % growth inhibition | < 0%
COc1cccc(Cn2c(Oc3ccccc3)nc3c2c(=O)n(C)c(=O)n3C)c1 | % growth inhibition | 72.4%
CCCn1c(=N)c(C(=O)NC2CCCCC2)cc2c(=O)n3cccc(C)c3nc21 | % growth inhibition | 71.1%
CCC(C)NCC(O)(c1ccc(Cl)cc1)c1ccc(Cl)cc1 (configuration not stated) | % growth inhibition | 74.6%
CC1CC2=C(CC1CNCCCN(C)C)C(C)(C)CCC2 (configuration not stated) | % growth inhibition | 99.6%
Cc1ccc(-c2nc3ccccc3o2)cc1NCc1cc(Cc2ccccc2)ccc1O | % growth inhibition | < 0%
Cc1ccc(C)c(Cn2c(N3CCC(C(=O)NCc4cccs4)CC3)nc3ccccc32)c1 | % growth inhibition | 79.1%
O=C(NC1CCN(Cc2ccccc2)CC1)c1cc2nc(-c3ccc(Cl)s3)cc(C(F)(F)F)n2n1 | % growth inhibition | < 0%
CCOC(=O)c1cnc2ccc(OC)cc2c1Nc1ccc(N2CCN(C)CC2)cc1 | % growth inhibition | 24.9%
Cc1ccc(CSCc2ccc(C(=O)NC3CC3)o2)cc1 | % growth inhibition | 3.19%
OC(CNC1CCCCC1)Cn1c2ccc(I)cc2c2cc(I)ccc21 (configuration not stated) | % growth inhibition | < 0%
Cc1[nH]c(-c2ccc(F)cc2)cc1C(=O)NC1CCN(Cc2ccccc2)CC1 | % growth inhibition | 44.1%
CCn1c(CN2CCN(Cc3ccccc3)CC2)nc2cc(NC(=O)c3cccs3)ccc21 | % growth inhibition | < 0%
CN1CCN(c2nc(Nc3ccc(O)cc3)nc3ccccc23)CC1 | % growth inhibition | < 0%
Cc1ccccc1OCCSc1nc2ccc(NC(=O)c3ccccc3)cc2s1 | % growth inhibition | 29.6%
O=C(NC1CCCC1)c1ccc(N2CCC(NCc3cccc(C(F)(F)F)c3)CC2)cc1 | % growth inhibition | 74.7%
O=C(Nc1ccc(N2CCCCC2)c(Cl)c1)c1ccc(Br)o1 | % growth inhibition | 82.4%
CCOC(=O)c1cnc2c(C)cccc2c1Nc1ccc(C(C)=O)cc1 | % growth inhibition | 79.3%
COc1ccc(CN2CCN(Cc3ccccc3)CC2)c(O)c1 | % growth inhibition | 11.2%
O=C(CCl)NCCOc1ccc(Cl)cc1Cl | % growth inhibition | 66.2%
CN(N=O)C1=C(NC2CCCCC2)C(=O)c2ccccc2C1=O | % growth inhibition | 57.2%
Cc1ccc(N2C(=O)C3C(C2=O)C2(c4ccccc4)C(=O)C3(c3ccccc3)C(c3ccccc3)=C2c2ccccc2)cc1 (configuration not stated) | % growth inhibition | 55.5%
O=C(Cc1ccccc1)NC(c1ccc(Cl)cc1)c1c(O)ccc2ccccc12 (configuration not stated) | % growth inhibition | 100%
Nc1ccn([C@@H]2O[C@H](CO)[C@@H](O)[C@H]2O)c(=O)n1 | % growth inhibition | < 0%
O=C(NC1CCCCC1)C(c1cccs1)N(CCc1ccccc1)C(=O)c1ccco1 (configuration not stated) | % growth inhibition | < 0%
Cc1ccc(N2C3c4ccccc4N(S(=O)(=O)c4ccc(C)cc4)C2c2ccccc2N3S(=O)(=O)c2ccc(C)cc2)cc1 | % growth inhibition | 19.1%
Cc1ccc(C2CC(C(F)(F)F)n3nc(C(=O)N4CCN(C(c5ccccc5)c5ccccc5)CC4)cc3N2)cc1 (configuration not stated) | % growth inhibition | 99.7%
CCOc1cc2c(cc1OCC)C(c1cc(Cl)ccc1O)NCC2 (configuration not stated) | % growth inhibition | 46.8%
c1ccc(CNc2nc(Nc3ccccc3)nc3ccccc23)cc1 | % growth inhibition | 99.9%
CCOC(=O)C1=C(c2ccccc2)N=c2sc(=Cc3cc(C)n(-c4ccc(F)cc4)c3C)c(=O)n2C1c1cccc(OC)c1OC (configuration not stated) | % growth inhibition | 92.3%
CCCCCCc1cc(O)c2c3c(c(=O)oc2c1)CCC(C)C3 (configuration not stated) | % growth inhibition | 99.4%
O=C(Nc1ccc(N2CCN(Cc3ccccc3)CC2)cc1)c1cccs1 | % growth inhibition | 91.8%
Oc1ccc(C(=C(Cl)Cl)c2ccc(O)cc2)cc1 | % growth inhibition | 78.3%
C=C(C)CCC(C)N1CCC(N2CCC(C(=O)NCCc3ccccc3)CC2)CC1 (configuration not stated) | % growth inhibition | 20.9%
CCN(CC)c1ccc(NC(=O)c2cccs2)cc1 | % growth inhibition | 91.4%
O=C(Nc1ccc(CN2CCOCC2)cc1)c1ccc(-c2ccc(Br)cc2)o1 | % growth inhibition | 8.26%
c1ccc2cc3c(Nc4ccc(N5CCOCC5)cc4)ccnc3cc2c1 | % growth inhibition | 60.2%
COc1ccc(N2CCN(C(CNC(=O)CC(C)(C)C)c3ccc4c(c3)OCO4)CC2)cc1 (configuration not stated) | % growth inhibition | < 0%
COc1ccc(-c2cn3c(C(=O)Nc4ccccc4Cl)c(-c4ccccc4)c4c3n2CCCC4)cc1 | % growth inhibition | 42.7%
CCOC(=O)c1c(C)n(-c2ccccc2)c2ccc(OC(=O)c3cc(OC)c(OC)c(OC)c3)cc12 | % growth inhibition | 96.6%

---

Measured % growth inhibition, listed per entry for reference.
- System: Toxoplasma gondii RH tachyzoites
- Experiment notes: % growth inhibition vs DMSO (48 h luciferase); higher = more inhibition
- Measurement parameters: 10 µM

Molecule | Endpoint unit | Readout qualifier | % growth inhibition
CCOc1ccc(N2C(N)=NC(N)=NC2(C)C)cc1 | % | < | 0
CCOc1cccc(C(=O)Nc2ccc(-c3nc4ccccc4[nH]3)cc2)c1 | % | < | 0
COc1ccccc1N1CCN(C(CNS(=O)(=O)c2ccc(Cl)cc2)c2cccnc2)CC1 (stereo unspecified) | % | = | 4.77
CN(C)c1ccc(-c2nc3cc(N)ccc3[nH]2)cc1 | % | = | 40.4
CC1=C(CC(=O)c2cccc([N+](=O)[O-])c2)C(=O)c2ccccc2C1=O | % | < | 0
COc1cccc(C(=O)Nc2ccc(-c3nc4ccccc4[nH]3)cc2)c1 | % | = | 53.9

---

- Test system: Toxoplasma gondii RH tachyzoites
- Experiment notes: % growth inhibition vs DMSO (48 h luciferase); higher = more inhibition
- Measurement parameters: 10 µM
Entries annotated with measured % growth inhibition

Compound | % growth inhibition
Cc1ccc(Nc2nc(N)c3ccccc3n2)cc1Cl | 98%
CCOC(=O)c1cn(CC)c2cc(N3CCCCC3)c(F)cc2c1=O | 67.3%
O=C1c2ccccc2-c2nnc(-c3ccc(Br)cc3)cc21 | < 0%
O=C(Nc1ccc(-c2nc3cc(NC(=O)c4ccc(Cl)cc4)ccc3[nH]2)cc1)c1ccc(Cl)cc1 | 21.6%
COc1cc2c(cc1OC)C1=NNC(=O)C1=NC(C)(C)C2 | 80.4%
O=C1c2ccccc2C2=Nc3ccccc3SC(c3cccc(F)c3)C12 (stereo unspecified) | 99.3%

---

- Test system: Toxoplasma gondii RH tachyzoites;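 further: tested in triplicate wells of 96-well plates on confluent HFF monolayers, with 1% DMSO wells as negative control in four replicates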
- Experiment notes: % growth inhibition vs DMSO (48 h luciferase); higher = more inhibition
- Measurement parameters: 10 µM
Endpoint name: % growth inhibition

Molecule | Endpoint name | Measured result
C[n+]1c2ccccc2nc2ccc(NCCO)cc21 | % growth inhibition | < 0%
CC(C)CNC(=O)c1c(N)n(CCc2ccccc2F)c2nc3ccccc3nc12 | % growth inhibition | < 0%
OC(CNC1CCCCC1)Cn1c2ccccc2c2ccccc21 (stereo not drawn) | % growth inhibition | < 0%
